Listed here are compounds together with their documented normalized growth.
# measurementDescription: chemical genetic growth profiling, strain panel (AID 1159580);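 note: tested at 20 µM; growth read once vehicle control cultures reached saturation at 30 °C; 1 = growth at the plate median or of vehicle wells; lower values mean less growth of the strain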
# experimentalParameters: S. cerevisiae deletion strains, growth OD, locus YOR290C, strain snf2, stronger effect = lower value
The campaign covered roughly 5,500 compounds. About 2,000 (36%) were called active. About 18% were inconclusive and are not listed. The list shows a part of the results.

compound	normalized growth
CCOC(=O)OC(C)OC(=O)C1N2C(=O)C(NC(=O)[C@H](N)c3ccccc3)C2SC1(C)C (some centres undefined)	0.985
C#C[C@]1(O)CCC2C3CCC4=C(CCC(=O)C4)C3CC[C@@]21C (some centres undefined)	0.932
CC(CC(=O)C1OC1(C)C)C1C(=O)CC2(C)C3=CCC4C(C)(C)C(OC5OCC(O)C(O)C5O)CCC45CC35C(O)CC12C (centres undefined)	1.02
COc1cccc2c1C(=O)c1c(O)c3c(c(O)c1C2=O)C[C@@](O)(C(=O)CO)C[C@@H]3OC1C[C@H](N)[C@H](O)[C@H](C)O1 (some centres undefined)	0.589
C/C=C(/C)C(=O)O[C@@H]1[C@H](OC(C)=O)[C@@]2(CO)C(CC1(C)C)C1=CCC3[C@@]4(C)CC[C@H](O[C@@H]5O[C@H](C(=O)O)[C@@H](O[C@@H]6O[C@H](CO)[C@@H](O)[C@H](O)[C@H]6O)[C@H](O)[C@H]5O[C@@H]5O[C@H](CO)[C@@H](O)[C@H](O)[C@H]5O)[C@](C)(CO)C4CC[C@@]3(C)[C@]1(C)C[C@H]2O (some centres undefined)	0.966
CC1(C)CC[C@@]2(C(=O)O)C(C1)C1=CCC3[C@@]4(C)CC[C@H](O)C(C)(C)C4CC[C@@]3(C)[C@]1(C)C[C@@H]2O (some centres undefined)	0.991
O=C(CNC(=O)c1ccc(Cl)cc1)NO	1.03
CCOP(=S)(OCC)Oc1nc(Cl)c(Cl)cc1Cl	0.941
Nc1ccc(S(=O)(=O)c2ccc(N)cc2)cc1	0.99
COc1cccc2c1C(=O)c1c(O)c3c(c(O)c1C2=O)C[C@@](O)(C(=O)CO)C[C@@H]3O[C@H]1C[C@H](N)[C@@H](O)[C@H](C)O1	0.78
CO[C@@]12[C@@H]3NC3CN1C1=C(C(=O)C(N)=C(C)C1=O)[C@@H]2COC(N)=O (some centres undefined)	0.998
Cc1ccc(N=CN(C)C=Nc2ccc(C)cc2C)c(C)c1	0.949
C[C@H]1[C@H](C)CC[C@]2(CO)CC[C@]3(C)C(=CCC4[C@@]5(C)CC[C@H](O)C(C)(C)C5CC[C@]43C)[C@H]12 (some centres undefined)	0.998
C#C[C@]1(OC(C)=O)CCC2C3CCC4=CC(=O)CC[C@@H]4C3CC[C@@]21C (some centres undefined)	0.961
NC(N)=N/N=C/c1c(Cl)cccc1Cl	0.918
C#C[C@]1(OC(C)=O)CCC2C3CCC4=C/C(=N\O)CCC4C3CC[C@@]21CC (some centres undefined)	0.563
CC1(C)CCC2(C(=O)O)CCC3(C)C(=CCC4C5(C)CCC(O)C(C)(C)C5C(O)CC43C)C2C1 (centres undefined)	0.991
C/C=C1\[C@H]2C=C(C)C[C@]1(N)c1ccc(=O)[nH]c1C2	1.01
C[C@@H]1CC[C@]2(C(=O)O)CC[C@]3(C)C(=CCC4[C@@]5(C)CC[C@H](O)C(C)(C)C5CC[C@]43C)C2[C@H]1C (some centres undefined)	0.995
